# TARGET: human Gal-1 (hGal-1)
# Sequence (P09382 2-135 limits assumed): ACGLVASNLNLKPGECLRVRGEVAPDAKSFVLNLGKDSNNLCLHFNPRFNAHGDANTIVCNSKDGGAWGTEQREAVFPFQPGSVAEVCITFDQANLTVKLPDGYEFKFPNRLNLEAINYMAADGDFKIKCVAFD
# PROTOCOL SUMMARY: Competitive binding assay: binding of biotinylated hGal-1 to microplate-adsorbed asialofetuin (ASF)
# CONDITIONS USED: Activities on hGal-1; mean values of several measurements
METRIC NAME: pIC50
Convention used: pIC50 is expressed as -log10 of the molar concentration.

Would you please give the reported pIC50 of O=c1[nH]c2ccc(C3=NO[C@@H](C[C@H]4O[C@H](CO)[C@H](O)[C@H](n5cc(-c6cc(F)c(F)c(F)c6)nn5)[C@H]4O)C3)cc2o1 [Ex 1.32] with human Gal-1 (hGal-1)?
5.94

Would you please give the reported pIC50 of CO[C@@H]1[C@@H](n2cc(-c3ccc(Cl)c(F)c3F)nn2)[C@@H](O)[C@@H](CO)O[C@@H]1Cc1cc(C2CCN(S(C)(=O)=O)CC2)on1 with human Gal-1 (hGal-1)?
6.44

Would you please give the reported pIC50 of CO[C@@H]1[C@@H](n2cc(-c3ccc(Cl)c(F)c3F)nn2)[C@@H](O)[C@@H](CO)O[C@@H]1Cc1cc(C2(C)COC2)no1 with human Gal-1 (hGal-1)?
5.85

Would you please give the reported pIC50 of CO[C@@H]1[C@@H](n2cc(-c3cc(F)c(F)c(F)c3)nn2)[C@@H](O)[C@@H](CO)O[C@@H]1Cn1cc(C2CCN(S(=O)(=O)c3ccc(C)cc3)CC2)nn1 with human Gal-1 (hGal-1)?
5.91

Would you please give the reported pIC50 of CO[C@@H]1[C@@H](n2cc(-c3cc(F)c(F)c(F)c3)nn2)[C@@H](O)[C@@H](CO)O[C@@H]1Cc1cn(-c2ccccc2)c(=O)o1 with human Gal-1 (hGal-1)?
5.09

Would you please give the reported pIC50 of CO[C@@H]1[C@@H](n2cc(-c3cc(F)c(F)c(F)c3)nn2)[C@@H](O)[C@@H](CO)O[C@@H]1CC1CN(C2CCCCC2)C(=O)O1 (mixture of isomers) with human Gal-1 (hGal-1)?
5.17

* * *

# TARGET: human Gal-1 (hGal-1)
# PROTOCOL SUMMARY: Competitive binding assay: binding of biotinylated hGal-1 to microplate-adsorbed asialofetuin (ASF)
# CONDITIONS USED: Activities on hGal-1; mean values of several measurements
I'd be grateful if you could share measured pIC50 for these entries.
Convention used: pIC50 is expressed as -log10 of the molar concentration.

Would you please give the reported pIC50 of CC(=O)N1CCC(C2=NO[C@H](C[C@H]3O[C@H](CO)[C@H](O)[C@H](n4cc(-c5cc(F)c(F)c(F)c5)nn4)[C@H]3O)C2)CC1 with human Gal-1 (hGal-1)?
5.86

Would you please give the reported pIC50 of CO[C@@H]1[C@@H](n2cc(-c3cc(F)c(C#N)c(F)c3)nn2)[C@@H](O)[C@@H](CO)O[C@@H]1CC1CC(C2CCN(C(=O)OC(C)(C)C)CC2)=NO1 (some centres unmarked) with human Gal-1 (hGal-1)?
4.78

Would you please give the reported pIC50 of OC[C@H]1O[C@H](Cc2cc(C3CCCCC3)on2)[C@H](O)[C@@H](n2cc(-c3cc(F)c(F)c(F)c3)nn2)[C@H]1O with human Gal-1 (hGal-1)?
4.82

Would you please give the reported pIC50 of CO[C@@H]1[C@@H](n2cc(-c3cc(F)c(F)c(F)c3)nn2)[C@@H](O)[C@@H](CO)O[C@@H]1Cn1cc(C2CCN(S(=O)(=O)C(C)C)CC2)nn1 with human Gal-1 (hGal-1)?
6.11

Would you please give the reported pIC50 of CO[C@@H]1[C@@H](n2cc(-c3cc(F)c(F)c(F)c3)nn2)[C@@H](O)[C@@H](CO)O[C@@H]1CC1CC(C2CCOCC2)=NO1 (some centres unmarked) with human Gal-1 (hGal-1)?
5.25

Would you please give the reported pIC50 of CC(C)(C)OC(=O)N1CCC(C2=NOC(C[C@H]3O[C@H](CO)[C@H](O)[C@H](n4cc(-c5cc(Cl)ccc5Cl)nn4)[C@H]3O)C2)CC1 (some centres unmarked) with human Gal-1 (hGal-1)?
5.63

Would you please give the reported pIC50 of CO[C@@H]1[C@@H](n2cc(-c3cc(F)c(F)c(F)c3)nn2)[C@@H](O)[C@@H](CO)O[C@@H]1CC1CC(C(C)(C)CO)=NO1 (some centres unmarked) with human Gal-1 (hGal-1)?
5.59

Would you please give the reported pIC50 of CO[C@@H]1[C@@H](n2cc(-c3ccc(C)c(F)c3F)nn2)[C@@H](O)[C@@H](CO)O[C@@H]1Cc1cc([C@@H]2CC[C@H]2O)on1 with human Gal-1 (hGal-1)?
5.04

Would you please give the reported pIC50 of CO[C@@H]1[C@@H](n2cc(-c3cc(F)c(F)c(F)c3)nn2)[C@@H](O)[C@@H](CO)O[C@@H]1Cc1cc(C2CCN(S(=O)(=O)N3CCC(F)(F)CC3)CC2)on1 with human Gal-1 (hGal-1)?
5.73

Would you please give the reported pIC50 of CO[C@@H]1[C@@H](n2cc(-c3cc(F)c(F)c(F)c3)nn2)[C@@H](O)[C@@H](CO)O[C@@H]1C[C@@H]1CC(c2cc[nH]c(=O)c2)=NO1 [Example 2.07a] with human Gal-1 (hGal-1)?
6.51

Would you please give the reported pIC50 of CO[C@@H]1[C@@H](n2cc(-c3cc(F)c(C)cc3F)nn2)[C@@H](O)[C@@H](CO)O[C@@H]1Cc1cc(C(C)(C)C)on1 with human Gal-1 (hGal-1)?
5.64

Would you please give the reported pIC50 of CO[C@@H]1[C@@H](n2cc(-c3cc(F)c(F)c(F)c3)nn2)[C@@H](O)[C@@H](CO)O[C@@H]1Cn1cc(C2CCCCC2)nn1 with human Gal-1 (hGal-1)?
5.56

Would you please give the reported pIC50 of OC[C@H]1O[C@H](Cc2cc(C3CCN(c4ncco4)CC3)on2)[C@H](O)[C@@H](n2cc(-c3cc(F)c(F)c(F)c3)nn2)[C@H]1O with human Gal-1 (hGal-1)?
5.94

Would you please give the reported pIC50 of OC[C@H]1O[C@H](CC2CC(C3CCCCC3)=NO2)[C@H](O)[C@@H](n2cc(-c3cc(F)c(F)c(F)c3)nn2)[C@H]1O (some centres unmarked) with human Gal-1 (hGal-1)?
5.14

Would you please give the reported pIC50 of CO[C@@H]1[C@@H](n2cc(-c3ccc(C)c(F)c3F)nn2)[C@@H](O)[C@@H](CO)O[C@@H]1Cc1cc(C2(C)CC2)no1 with human Gal-1 (hGal-1)?
5.69

Would you please give the reported pIC50 of CCOC(=O)N1CCC(c2cn(C[C@H]3O[C@H](CO)[C@H](O)[C@H](n4cc(-c5cc(F)c(F)c(F)c5)nn4)[C@H]3OC)nn2)CC1 with human Gal-1 (hGal-1)?
6.28

* * *

I'd be grateful if you could share measured pIC50 for these entries.
# TARGET: UniProt P17931
# PROTOCOL SUMMARY: Competitive binding assay: binding of biotinylated hGal-3 to microplate-adsorbed asialofetuin (ASF)
# CONDITIONS USED: Activity on hGal-3; mean values of several measurements
Convention used: pIC50 is expressed as -log10 of the molar concentration.

State its pIC50 for this molecule: OC[C@H]1O[C@H](Cc2cc(C3CCN(c4nccs4)CC3)on2)[C@H](O)[C@@H](n2cc(-c3cc(F)c(F)c(F)c3)nn2)[C@H]1O [Ex 1.87]
7.10

State its pIC50 for this molecule: CO[C@@H]1[C@@H](n2cc(-c3ccc(F)c(F)c3F)nn2)[C@@H](O)[C@@H](CO)O[C@@H]1Cc1cc(C2CCOCC2)on1 [Ex 1.184]
6.89

State its pIC50 for this molecule: CO[C@@H]1[C@@H](n2cc(-c3cc(F)c(F)c(F)c3)nn2)[C@@H](O)[C@@H](CO)O[C@@H]1Cc1cc(C2CCN(C(=O)C(C)(C)C)CC2)on1 [Example 3.34]
6.92

State its pIC50 for this molecule: CC(=O)O[C@@H]1[C@@H](n2cc(-c3cc(F)c(F)c(F)c3)nn2)[C@@H](O)[C@@H](CO)O[C@@H]1Cc1cc(C2CCNCC2)on1 [Example 3.15]
6.85

State its pIC50 for this molecule: CO[C@@H]1[C@@H](n2cc(-c3cc(F)c(F)c(F)c3)nn2)[C@@H](O)[C@@H](CO)O[C@@H]1C[C@@H]1CC(C2CCN(C(=O)OC(C)(C)C)CC2)=NO1 [Ex 1.48]
7.05

* * *

# TARGET: human Gal-3 (hGal-3) (Homo sapiens (Human), UniProt P17931)
# Sequence (P17931 whole entry): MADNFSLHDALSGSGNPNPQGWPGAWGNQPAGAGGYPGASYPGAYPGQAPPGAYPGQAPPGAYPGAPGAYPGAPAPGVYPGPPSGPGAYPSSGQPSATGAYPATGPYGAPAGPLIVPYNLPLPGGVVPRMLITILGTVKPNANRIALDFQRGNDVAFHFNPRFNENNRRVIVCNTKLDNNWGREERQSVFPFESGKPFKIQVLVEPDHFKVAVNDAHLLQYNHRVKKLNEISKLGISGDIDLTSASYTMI
We label by threshold. Values of IC50 strictly beneath 70 nM are t. Values of 70 nM and up are f.

Decide: IC50 of CO[C@@H]1[C@@H](n2cc(-c3ccc(C)c(F)c3)nn2)[C@@H](O)[C@@H](CO)O[C@@H]1Cc1cc(C2CCN(S(C)(=O)=O)CC2)on1 [Ex 1.153] strictly below 70 nM?
t

Decide: IC50 of CO[C@@H]1[C@@H](n2cc(-c3cc(F)c(F)c(F)c3)nn2)[C@@H](O)[C@@H](CO)O[C@@H]1Cn1cc(C2(O)CCCC2)nn1 [Example 4.41] strictly below 70 nM?
f

Decide: IC50 of CO[C@@H]1[C@@H](n2cc(-c3ccc(C)c(F)c3F)nn2)[C@@H](O)[C@@H](CO)O[C@@H]1Cc1cc(C2(C#N)CCCC2)no1 [Ex 1.292] strictly below 70 nM?
t

Decide: IC50 of CO[C@@H]1[C@@H](n2cc(-c3ccc(F)c(F)c3F)nn2)[C@@H](O)[C@@H](CO)O[C@@H]1Cc1cc(C2(O)CCC2)on1 [Ex 1.236] strictly below 70 nM?
t

Decide: IC50 of COc1ccc(N2CC(C[C@H]3O[C@H](CO)[C@H](O)[C@H](n4cc(-c5cc(F)c(F)c(F)c5)nn4)[C@H]3OC)OC2=O)cc1 (mixture of isomers) [Example 5.01] strictly below 70 nM?
f

Decide: IC50 of Cc1ccc(-c2cn([C@H]3[C@@H](O)[C@@H](CO)O[C@H](Cc4cc(C5(C)COC5)no4)[C@@H]3O)nn2)c(F)c1F [Ex 1.335] strictly below 70 nM?
t

Decide: IC50 of CO[C@@H]1[C@@H](n2cc(-c3cc(F)c(F)c(F)c3)nn2)[C@@H](O)[C@@H](CO)O[C@@H]1CC1CN(C2CCN(C(=O)CC(C)(C)C)CC2)C(=O)O1 (mixture of isomers) [Example 5.19] strictly below 70 nM?
f

Decide: IC50 of CO[C@@H]1[C@@H](n2cc(-c3cc(F)c(F)c(F)c3)nn2)[C@@H](O)[C@@H](CO)O[C@@H]1Cn1cc(-c2ccc3[nH]c(=O)oc3c2)nn1 [Example 4.02] strictly below 70 nM?
f

Decide: IC50 of CO[C@@H]1[C@@H](n2cc(-c3ccc(F)c(F)c3F)nn2)[C@@H](O)[C@@H](CO)O[C@@H]1Cc1cc(C2(C)CCOCC2)on1 [Ex 1.269] strictly below 70 nM?
t

Decide: IC50 of CO[C@@H]1[C@@H](n2cc(-c3cc(F)c(F)c(F)c3)nn2)[C@@H](O)[C@@H](CO)O[C@@H]1CC1CN(C2CCN(S(=O)(=O)CC(C)C)CC2)C(=O)O1 (mixture of isomers) [Example 5.18] strictly below 70 nM?
t

Decide: IC50 of CO[C@@H]1[C@@H](n2cc(-c3ccc(Cl)c(F)c3F)nn2)[C@@H](O)[C@@H](CO)O[C@@H]1CC1CC(C(C)(C)CO)=NO1 (stereo partly shown) [Ex 1.280] strictly below 70 nM?
f

Decide: IC50 of CO[C@@H]1[C@@H](n2cc(-c3cc(F)c(F)c(F)c3)nn2)[C@@H](O)[C@@H](CO)O[C@@H]1CC1CC(c2ccc3[nH]c(=O)oc3c2)=NO1 (stereo partly shown) [Ex 1.20] strictly below 70 nM?
f

Decide: IC50 of O=c1[nH]c2ccc(C3=NOC(C[C@H]4O[C@H](CO)[C@H](O)[C@H](n5cc(-c6cc(F)c(F)c(F)c6)nn5)[C@H]4O)C3)cc2o1 (stereo partly shown) [Ex 1.21] strictly below 70 nM?
f

Origin of measurements: patent US12319672B2
